Target: EPHB2 (UniProt P29323)
Sequence (P29323 whole entry, looked up): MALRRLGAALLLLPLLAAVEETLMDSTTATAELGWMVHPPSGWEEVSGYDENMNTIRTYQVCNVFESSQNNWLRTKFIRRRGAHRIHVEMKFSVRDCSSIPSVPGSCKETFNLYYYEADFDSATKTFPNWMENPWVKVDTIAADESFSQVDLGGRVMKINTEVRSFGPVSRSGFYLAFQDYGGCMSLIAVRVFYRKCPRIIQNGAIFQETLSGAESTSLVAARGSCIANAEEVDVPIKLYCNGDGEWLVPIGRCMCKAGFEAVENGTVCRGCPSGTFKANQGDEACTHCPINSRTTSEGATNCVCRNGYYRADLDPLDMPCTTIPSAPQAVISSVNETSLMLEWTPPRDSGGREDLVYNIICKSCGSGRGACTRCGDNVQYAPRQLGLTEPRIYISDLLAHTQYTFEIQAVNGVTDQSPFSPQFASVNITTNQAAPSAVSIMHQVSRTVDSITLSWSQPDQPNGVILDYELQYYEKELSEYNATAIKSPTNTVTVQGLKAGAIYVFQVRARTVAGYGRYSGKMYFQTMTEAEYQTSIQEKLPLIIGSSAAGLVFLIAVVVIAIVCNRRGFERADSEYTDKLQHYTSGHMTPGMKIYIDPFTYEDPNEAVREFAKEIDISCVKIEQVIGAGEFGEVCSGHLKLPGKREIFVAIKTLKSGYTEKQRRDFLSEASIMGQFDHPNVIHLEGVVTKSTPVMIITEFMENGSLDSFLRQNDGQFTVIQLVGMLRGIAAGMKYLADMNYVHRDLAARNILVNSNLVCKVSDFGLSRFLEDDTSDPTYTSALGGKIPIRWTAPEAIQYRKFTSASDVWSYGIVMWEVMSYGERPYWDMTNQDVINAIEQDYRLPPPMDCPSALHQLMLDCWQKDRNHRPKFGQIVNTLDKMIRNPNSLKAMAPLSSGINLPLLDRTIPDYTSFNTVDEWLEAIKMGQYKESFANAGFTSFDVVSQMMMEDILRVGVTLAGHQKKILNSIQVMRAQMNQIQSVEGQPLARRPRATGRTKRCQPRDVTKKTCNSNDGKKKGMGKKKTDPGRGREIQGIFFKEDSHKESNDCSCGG
Assay: phosphorylation enrichment, bacterial display (enrichment ratio); higher = better substrate or ligand; peptides without Tyr show the background;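 further: 11-residue human phosphosite peptides and single-mutation variants displayed on the E. coli surface, counted by deep sequencing, each peptide's frequency after selection divided by its frequency in the unselected input library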;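 further: frequency after pTyr selection over input frequency; kinase dosed for 20-30% of maximal phosphorylation in three min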
measurement_kind: phosphorylation enrichment
Answer as a number with no unit attached.

phosphorylation enrichment for ASRKYYAMKIL [AKT3_Y174_G171R] is 0.338

phosphorylation enrichment for KNRDVYSSDFF [USP24_Y2134_YF] is 1.73

phosphorylation enrichment for MAYDRYVAICS [OR8D4_Y123_C120Y] is 2.12

phosphorylation enrichment for GEDLSYGDVPP [IRS1_Y151] is 0.534

phosphorylation enrichment for SNMPSYSGHFT [GRIN2A_Y1224_T1223S] is 0.408

phosphorylation enrichment for FFVVEYRNQKP [MUC17_Y4332_D4334N_YF] is 0.841

phosphorylation enrichment for SLLVVYPWTQR [HBB_Y36_R31S] is 0.544

phosphorylation enrichment for CLAKMYFSAVD [CP_Y539_YF] is 0.592

phosphorylation enrichment for GADAIYDHVNE [UQCR10_Y44_I47V] is 1.82

phosphorylation enrichment for EIHTQYEAMAS [GFAP_Y242_R239H] is 0.566

phosphorylation enrichment for MKNDLYQTPLH [NFKB1_Y582_R578K] is 1.11

phosphorylation enrichment for RQNNSYTCYTA [SLC20A2_Y386_R382Q] is 0.76

phosphorylation enrichment for TYEPNYGTVKQ [RAPGEF6_Y1447] is 5.21

phosphorylation enrichment for PRPACYPSTVS [CACNA1C_Y1832_G1831C] is 0.435

phosphorylation enrichment for EEQKKYYNAVK [SCN5A_Y1494_M1498V] is 0.433

phosphorylation enrichment for NTQRPYFKGGG [TYROBP_Y111_YF] is 0.372

phosphorylation enrichment for DSSIRYLQEIY [FGG_Y135] is 0.585

phosphorylation enrichment for GACGGYCSVLG [RAB18_Y202] is 0.352

phosphorylation enrichment for IRKVLYANNVM [ACTA1_Y296_D294V] is 0.368

phosphorylation enrichment for DYSLKYPTDIP [APC_Y1183_A1184P] is 0.478

phosphorylation enrichment for TLGPFYPSRLF [CRYAA_Y18] is 0.493

phosphorylation enrichment for LTSKPYAFTAQ [NDUFS1_Y236_R241Q] is 0.471

phosphorylation enrichment for SHNELYFEAAE [VANGL1_Y344_E347A_YF] is 0.733

phosphorylation enrichment for AIIGIYILRDN [CDH23_Y2949_D2954N] is 0.631

phosphorylation enrichment for LVMFISAIFGM [SCN1A_Y1684_Y1684S] is 1.07

phosphorylation enrichment for SVTCTYSPALI [TP53_Y126_N131I] is 0.779

phosphorylation enrichment for DWQQEYVLNES [TGM1_Y267_R264Q] is 0.615

phosphorylation enrichment for SDFFAYSPVQE [H6PD_Y449_R453Q_YF] is 0.686

phosphorylation enrichment for IRTIDYRYTVC [IDS_Y497_W502C] is 0.52

phosphorylation enrichment for EYGRRYGFSRQ [CCDC93_Y209] is 0.393

phosphorylation enrichment for HRGCLYLAIEF [TEK_Y899_Y897C_YF] is 1.81

phosphorylation enrichment for LEAVSYSSPYA [RNLS_Y190_R193P] is 0.936

phosphorylation enrichment for PDMHSYVVRYN [GRIN2D_Y732_M733V] is 0.723

phosphorylation enrichment for IGMFSYVMLAS [GGCX_Y301] is 0.611

phosphorylation enrichment for LRVHSYKSMQH [DRC7_Y516_P521H] is 0.772

phosphorylation enrichment for QELRRYLKSGI [MICA_Y194_V199I] is 0.281

phosphorylation enrichment for SWKRRYFLLWA [APBB1IP_Y331_R335W] is 0.5

phosphorylation enrichment for KGTAGYTTVAV [RET_Y752_R749T] is 0.362

phosphorylation enrichment for PVKSEYSSIKL [NPC2_Y119_P120S] is 0.533

phosphorylation enrichment for DNEYAYLKAII [HNF4A_Y288] is 0.97

phosphorylation enrichment for DPHKIFEFVNS [IRF3_Y107_Y107F] is 0.539

phosphorylation enrichment for DKMEAYNINET [TEKT4_Y210_D213N] is 0.535

phosphorylation enrichment for CTLSVYRQLHN [LUZP1_Y1036] is 0.631

phosphorylation enrichment for VKANTYEKFWP [GATM_Y100_YF] is 0.374

phosphorylation enrichment for SSTASYFKAPG [RFX2_Y108_E110K] is 0.394

phosphorylation enrichment for VATRWYQSPEL [CDKL5_Y177_R178Q] is 0.774

phosphorylation enrichment for TQFWRYFAGNL [SLC25A5_Y112_L111R] is 0.589

phosphorylation enrichment for CLRIDYERVSQ [DSP_Y1542_R1537C] is 1.03

phosphorylation enrichment for VHNLDYYKQTT [FGFR3_Y647_K650Q] is 0.617

phosphorylation enrichment for AIFWRYSKFFD [SH3PXD2B_Y45_R43W_YF] is 0.52

phosphorylation enrichment for GCLSKYSGVFS [TUBGCP6_Y1624_V1621L] is 0.543

phosphorylation enrichment for IIAVHYVLEES [RYR2_Y4559] is 0.628

phosphorylation enrichment for AGVIIYTSRFQ [PFAS_Y538_A535V] is 0.631

phosphorylation enrichment for KFDLMYAKHAF [TUBA1A_Y399_R402H] is 0.543
